Assay: MRT in BALB/c mouse at 10 mg/kg, po measured upto 4 hrs by mS-HPLC analysis
Assay type: ADME, organism-based
Conditions: in vivo
measured-parameter: MRT (min)
Reply with just the number (in min).

C=C(C)[C@@H]1CCC(C)=C[C@H]1c1c(O)cc(C(C)n2nccn2)cc1O (some centres not stated) : 54

Q. Please supply the value of reported MRT for the item `C=C(C)[C@@H]1CCC(C)=C[C@H]1c1c(O)cc(CCCCC)cc1O`
A. 42

====

Reported half-life values for a set of compounds
Test: Half life in BALB/c mouse at 10 mg/kg, po measured upto 4 hrs by mS-HPLC analysis
Type: ADME, organism-based
Details: in vivo
API: value field is a number in min; no unit string.

C=C(C)[C@@H]1CCC(C)=C[C@H]1c1c(O)cc(CCCCC)cc1O : 30

Q. Provide one value: measured half-life of C=C(C)[C@@H]1CCC(C)=C[C@H]1c1c(O)cc(C(C)n2nccn2)cc1O (some centres not stated)
A. 48
